recordedEndpoint: melting point

1. Cc1cnc(-c2ccc3c(c2)COC2(CCN(C4CCC4)CC2)O3)c(C)n1
224 to 225 °C
2. COCCNC(=O)c1ccc(-c2ccc3c(c2)COC2(CCN(C4CCC4)CC2)O3)cc1F
107 to 108.5 °C
3. O=C(Nc1ccc2c(c1)COC1(CCN(C3CCC3)CC1)O2)c1ccncn1
198 to 199 °C
4. O=C1N(c2ccc(C(F)(F)F)nc2)CCN1c1ccc2c(c1)COC1(CCN(C3CCC3)CC1)O2
222 to 224 °C
5. O=C(NCC(F)(F)F)N1CCN(c2ccc3c(c2)COC2(CCN(C4CCC4)CC2)O3)CC1
182.5 to 183.5 °C
6. O=c1oc2ccccc2n1-c1ccc2c(n1)COC1(CCN(C3CCC3)CC1)O2
67 to 70 °C
7. c1ccc(N2CCN(c3ccc4c(c3)CCC3(CCN(C5CCC5)CC3)O4)CC2)cc1
173 to 175 °C
8. O=C(c1ccc(-c2ccc3c(c2)COC2(CCN(C4CCC4)CC2)O3)cc1F)N1CCOCC1
161 to 162 °C
9. O=C(Nc1ccc2c(c1)COC1(CCN(C3CCC3)CC1)O2)c1ccncc1F
168 to 169 °C
10. CS(=O)(=O)N1CCN(c2ccc3c(c2)CCC2(CCN(C4CCC4)CC2)O3)CC1
240 to 242 °C
11. CNC(=O)c1ccc(-c2ccc3c(c2)CC2(CCN(C4CCC4)CC2)O3)cc1
197 to 198 °C
12. CC(C)(O)CNC(=O)c1ccc(-c2ccc3c(c2)COC2(CCN(C4CCC4)CC2)O3)cc1
156 to 158 °C
13. O=C(c1ccc(-c2ccc3c(c2)CCC2(CCN(C4CCC4)CC2)O3)cc1)N1CC[C@H](O)C1
193 to 195 °C
14. c1ncc(COc2ccc3c(c2)CCC2(CCN(C4CCC4)CC2)O3)o1
45 to 47 °C

----------
Listed below: melting point values for each entry.
recordedEndpoint: melting point

1. CCOC(=O)C1CC=C(c2ccc3c(c2)COC2(CCN(C4CCC4)CC2)O3)CC1 (stereo not shown) [Example 487]
263 to 265 °C
2. Cn1cc(-c2ccc3c(c2)COC2(CCN(C4CCC4)CC2)O3)ccc1=O [Example 659]
170 to 173 °C
3. c1ncc(COc2ccc3c(c2)CCC2(CCN(C4CCC4)CC2)O3)s1 [Example 574]
85 to 87 °C
4. OC1CC=C(c2ccc3c(c2)COC2(CCN(C4CCC4)CC2)O3)CC1 (stereo not shown) [Example 525]
128 to 132 °C
5. Cc1cc(C(N)=O)ccc1-c1ccc2c(c1)COC1(CCN(C3CCC3)CC1)O2 [Example 693]
180 to 182 °C
6. [O-][S+]1CC=C(c2ccc3c(c2)COC2(CC[N+]([O-])(C4CCC4)CC2)O3)CC1 (stereo not shown) [Example 472]
130 to 133 °C
7. O=C(Nc1ccc2c(c1)COC1(CCN(C3CCC3)CC1)O2)c1ccnc(N2CCOCC2)c1 [Example 313]
205 to 207 °C
8. O=S1(=O)CCN(c2ccc3c(c2)COC2(CCN(C4CCC4)CC2)O3)CC1 [Example 421]
157 to 158 °C
9. COCCN(C)C(=O)c1c(F)cc(-c2ccc3c(c2)CCC2(CCN(C4CCC4)CC2)O3)cc1F [Example 360]
100 to 102 °C
10. Clc1ccc(N2CCN(c3ccc4c(c3)CCC3(CCN(C5CCC5)CC3)O4)CC2)nn1 [Example 389]
229 to 231 °C
11. COCCn1cc(-c2ccc3c(c2)COC2(CCN(C4CCC4)CC2)O3)ccc1=O [Example 708]
141 to 142 °C
12. c1cc(-c2ccc3c(c2)COC2(CCN(C4CCC4)CC2)O3)co1 [Example 5]
150 to 152 °C
13. CNC(=O)c1cc(-c2ccc3c(c2)CCC2(CCN(C4CCC4)C2)O3)ccc1Cl (stereo not shown) [Example 581]
100 to 103 °C
14. O=C1N(c2ccncc2)CCN1c1ccc2c(c1)CCC1(CCN(C3CCC3)CC1)O2 [Example 210]
208 to 210 °C
15. Cc1nc(C)c(C(=O)Nc2ccc3c(c2)COC2(CCN(C4CCC4)CC2)O3)s1 [Example 308]
174 to 175 °C
16. O=C(N[C@H]1CCOC1)c1ccc(-c2ccc3c(c2)CCC2(CCN(C4CCC4)CC2)O3)cc1 [Example 580]
196 to 198 °C
17. O=C(NCCO)c1ccc(-c2cc(F)c3c(c2)COC2(CCN(C4CCC4)CC2)O3)cc1 [Example 141]
145 to 147 °C
18. Cc1noc(C)c1-c1ccc2c(c1)COC1(CCN(C3CCC3)CC1)O2 [Example 76]
123 to 127 °C
19. COC1(c2ccc3c(c2)COC2(CCN(C4CCC4)CC2)O3)CCS(=O)(=O)CC1 [Example 542]
199 to 201 °C
20. FC(F)(F)c1cccnc1N1CCN(c2ccc3c(c2)CCC2(CCN(C4CCC4)CC2)O3)CC1 [Example 367]
138 to 139 °C
21. COCCNC(=O)c1c(F)cc(-c2ccc3c(c2)CCC2(CCN(C4CCC4)CC2)O3)cc1F [Example 256]
64.9 to 65.4 °C
22. O=C(c1ccc(-c2ccc3c(c2)COC2(CCN(C4CCC4)CC2)O3)cc1F)N1CCC(O)CC1 [Example 222]
105.2 to 106.9 °C
23. O=C(c1ccco1)N1CCN(c2ccc3c(c2)CCC2(CCN(C4CCC4)CC2)O3)CC1 [Example 387]
133 to 135 °C
24. CNC(=O)c1c(F)cc(-c2ccc3c(c2)CCC2(CCN(C4CCC4)CC2)O3)cc1F [Example 226]
110 to 112 °C
25. O=C(N[C@H]1CCOC1)c1ccc(-c2ccc3c(c2)COC2(CCN(C4CCC4)CC2)O3)cc1 [Example 600]
205 to 207 °C
26. O=C1CCC(=O)N1CCCOc1ccc2c(c1)CCC1(CCN(C3CCC3)CC1)O2 [Example 460]
235 to 237 °C
27. OCc1ccc(-c2ccc3c(c2)COC2(CCN(C4CCC4)CC2)O3)cc1 [Example 44]
131 to 134 °C
28. c1ccn2ncc(-c3ccc4c(c3)COC3(CCN(C5CCC5)CC3)O4)c2c1 [Example 757]
158 to 160 °C
